test system: PHKG2; conditions: concentration: 1 μM, replicates: in singlicate; n = 1;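 note: KINOMEscan kinase panel screen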
Outcome label depends on %Inh relative to 4%: at/above gives Condition met, below gives Condition not met.

> print(dat)
                                   compound  measurement.target         class.name
1  Cn1cc(-c2[nH]c3cc(NC(=O)[C@H](N)C4CCCCC4)cc4c3c2C=NNC4=O)cn1               PHKG2      Condition met
2  CCc1ccc(-c2ccc3c(c2)-c2c(cnn2C)S(=O)(=O)N3C)cc1               PHKG2  Condition not met
3  FC(F)(F)c1ccc(/C=C/c2cncnc2Nc2ccc3[nH]c(Cc4ccccc4)nc3c2)cc1               PHKG2  Condition not met
4  CCS(=O)(=O)c1ccc(OC)c(Nc2nccc(-c3c(-c4cccc(NC(=O)c5c(F)cccc5F)c4)nn4ncccc34)n2)c1               PHKG2  Condition not met
5  Cc1ccc(F)c(C(=O)Nc2cccc(-c3nn4ccccc4c3-c3ccnc(Nc4cccc(F)c4)n3)c2)c1F               PHKG2      Condition met
6  Cl.Cl.NCC(C(=O)Nc1cc(Br)c(-c2ccnc3[nH]ccc23)s1)c1ccccc1 (centres unmarked)               PHKG2  Condition not met
7  COc1cc(Nc2nccc(-c3c(-c4cccc(NC(=O)c5c(F)cccc5F)c4)nn4ncccc34)n2)cc(OC)c1OC               PHKG2  Condition not met

----------
system: RPS6KA5(Kin.Dom.1-N-terminal); details: concentration: 1 μM, replicates: in singlicate; n = 1
Measured %Inh accompanies every entry in the list below.
Measurement label: %Inh (%)

> print(dat)
                                    compound  observed.measurement
 1  COc1cc(Nc2nccc(N3CCC(NC(=O)Nc4cccc(C(C)=O)c4)C3)n2)cc(OC)c1OC (stereo not shown)                     9
 2  CCn1c(-c2nonc2N)nc2c(C#CC(C)(C)O)nc(OC[C@H](N)c3ccccc3)cc21                     6
 3  COC(=O)Nc1nc2ccc(Oc3ccc(NC(=O)Nc4cc(C(F)(F)F)ccc4F)cc3)cc2n1C.Cl                     0
 4  FC(F)(F)c1ccc(/C=C/c2cncnc2Nc2ccc3[nH]c(Cc4ccccc4)nc3c2)cc1                     0
 5  CC(=O)Nc1nc2cnc(Nc3cc(NC(=O)c4cccc(C5(C#N)CC5)c4Cl)ccc3C)nc2s1                    14
 6  CN(C)S(=O)(=O)c1cc(-c2ccc3nccc(-c4cccc(S(N)(=O)=O)c4)c3c2)cnc1N                    16
 7     O=C(Nc1n[nH]c2cc(-c3ccoc3)ccc12)C1CC1                     0
 8  CN(c1ccc(NC(=O)Nc2cc(C(F)(F)F)ccc2F)cc1)c1ccnc(Nc2ccc(S(N)(=O)=O)cc2)n1                    14
 9  COc1cc(Nc2nccc(N3CCC(NC(=O)c4cc5ccccc5s4)C3)n2)cc(OC)c1OC (stereo not shown)                     5
10  Cn1cc(-c2[nH]c3cc(NC(=O)[C@H](N)C4CCCCC4)cc4c3c2C=NNC4=O)cn1                    34
11  CC(=O)N1CCN(c2ccc(Nc3nccc(-c4sc(C(C)C)nc4-c4cccc(NS(=O)(=O)c5cccc(Cl)c5)c4)n3)cn2)CC1                    14
12  Cc1ccc(S(=O)(=O)Nc2ccc(Nc3nccc(Nc4cccc5[nH]ncc45)n3)cc2)cc1                     0
13  Cl.c1ccc(-c2ccc3c(Nc4ccc5[nH]ccc5c4)ccnc3c2)nc1                     0
14  Cl.Cl.NCC(NCc1ccc(-c2ccnc3[nH]ccc23)s1)c1ccccc1 (stereo not shown)                    32
15  Cc1occc1-c1ncc(OC[C@@H](N)Cc2c[nH]c3ccccc23)cc1-c1ccc2[nH]nc(C)c2c1.O=C(O)C(F)(F)F                    49
16  COc1cc(Nc2ncc3c(C)nc(-c4cc5ccccc5[nH]4)n3n2)cc(OC)c1OC                     0
17  O=C(Nc1cccc(Oc2ccc3nc(NC(=O)C4CC4)cn3n2)c1)c1ccccc1C(F)(F)F                     0
18  COc1cc2c(cc1OCCN1CCNCC1)ncc1c3ccc(C#N)cc3[nH]c21                     0
19  Fc1ccc(-c2ncn(C3CCNCC3)c2-c2ccnc(Oc3ccc(-c4ccccc4)cc3)n2)cc1                     0
20  Clc1ccc(-c2nn3ncccc3c2-c2ccnc(Nc3ccc4c(c3)OCCO4)n2)cc1                     0
21  O=C(Nc1ccccc1F)NC1CCN(c2ccnc(Nc3ccc(F)cc3)n2)CC1                     0
22  CCn1c(-c2nonc2N)nc2c(C#CC(C)(C)O)ncc(OCCCCN)c21.O=C(O)C(F)(F)F.O=C(O)C(F)(F)F                    37
